- target: UniProtKB Q16790
Cut-off 1000 nM on IC50: below means Met, at or above means Not met.

Cc1cc(C)cc(C(=O)Nc2cc(Cl)c(S(N)(=O)=O)cc2S(N)(=O)=O)c1: Met
Cc1cc(C)cc(C(=O)NC(=S)Nc2ccccc2O)c1: Not met
Cc1ccc(C(=O)Nc2cccc(C(=O)O)c2)c(C)c1: Not met
COc1ccc(C(=O)NC(=S)Nc2cc(Cl)c(S(N)(=O)=O)cc2S(N)(=O)=O)cc1OC: Not met

Ask: is_below(IC50, 1000 nM) for `Cc1cc(C)cc(C(=O)NC(=S)Nc2cc(Cl)c(O)c(Cl)c2)c1` ?
Reply: Not met

Ask: is_below(IC50, 1000 nM) for `COc1ccc(C(=O)NC(=S)Nc2cc([N+](=O)[O-])ccc2Cl)cc1OC` ?
Reply: Not met

Ask: is_below(IC50, 1000 nM) for `Cc1ccc(C(=O)NC(=S)Nc2ccc(C(=O)O)cc2)c(C)c1` ?
Reply: Not met

Ask: is_below(IC50, 1000 nM) for `COc1ccc(C(=O)NC(=S)Nc2ccc(C(=O)O)cc2)cc1OC` ?
Reply: Met

* * *

- experiment: MTT cell viability assay, HEK-293 T normal cells
- Assay type: cell-based
- run_conditions: human, HEK-293 T normal cells, % cell viability ± SD (HEK-293 T cells), 100 μM, 24–48 h incubation, MTT, vs untreated control
For each of the compounds below, state its viability at 100 µM.

List viability at 100 µM for every entry below, keeping the order given.
1. COc1ccc(C(=O)NC(=S)Nc2ccc(C(=O)O)cc2)cc1OC
2. COc1ccc(C(=O)Nc2cc(Cl)c(O)c(Cl)c2)cc1OC
3. Cc1ccc(C(=O)Nc2cccc(C(=O)O)c2)c(C)c1

Reply:
1: 75%; 2: 73%; 3: 86%

List viability at 100 µM for every entry below, keeping the order given.
1. COc1ccc(C(=O)NC(=S)Nc2c(Cl)cc([N+](=O)[O-])cc2Br)cc1OC
2. Cc1cc(C)cc(C(=O)Nc2cc(Cl)c(S(N)(=O)=O)cc2S(N)(=O)=O)c1

Reply:
49%
72%

List viability at 100 µM for every entry below, keeping the order given.
1. COc1ccc(C(=O)NC(=S)Nc2cc(Cl)c(S(N)(=O)=O)cc2S(N)(=O)=O)cc1OC
2. Cc1cc(C)cc(C(=O)NC(=S)Nc2ccccc2O)c1

Reply:
["97%", "81%"]

* * *

- experiment: MTT cell viability assay, HEK-293 T normal cells
- Format: cell-based
- run_conditions: human, HEK-293 T normal cells, % cell viability ± SD (HEK-293 T cells), 100 μM, 24–48 h incubation, MTT, vs untreated control
For each of the compounds below, state its viability at 100 µM.
Answers are plain numbers, in %.

Cc1cc(C)cc(C(=O)Nc2cc([N+](=O)[O-])ccc2Cl)c1 [Compound 14]: 85

Then this compound:
Ask: Return reported viability at 100 µM. Input compound: Cc1cc(C)cc(C(=O)Nc2cc(Br)cc(C(F)(F)F)c2)c1 [Compound 15]
Reply: 82

* * *

- target: UniProt:P00918
readout_name: IC50 (µM)
Give bare numbers, in µM.

The following compounds have reported results that may help.
Cc1cc(C)cc(C(=O)NC(=S)Nc2ccccc2O)c1 [Compound 24]: 1.24
Cc1cc(C)cc(C(=O)Nc2cc([N+](=O)[O-])ccc2Cl)c1 [Compound 14]: 6.49
COc1ccc(C(=O)NC(=S)Nc2ccc(C(=O)O)cc2)cc1OC [Compound 18]: 4.17
Cc1cc(C)cc(C(=O)NC(=S)Nc2cc(Cl)c(O)c(Cl)c2)c1 [Compound 26]: 4.45

List IC50 for every entry below, keeping the order given.
1. Cc1cc(C)cc(C(=O)Nc2cc(Br)cc(C(F)(F)F)c2)c1 [Compound 15]
2. Cc1ccc(C(=O)NC(=S)Nc2ccc(C(=O)O)cc2)c(C)c1 [Compound 25]
3. COc1ccc(C(=O)NC(=S)Nc2cc([N+](=O)[O-])ccc2Cl)cc1OC [Compound 22]

Reply:
1. 1.93
2. 0.38
3. 0.26

Ask: Return reported IC50. Input compound: COc1ccc(C(=O)NC(=S)Nc2cc(Cl)c(S(N)(=O)=O)cc2S(N)(=O)=O)cc1OC [Compound 17]
Reply: 11.5

Hey, just so you know, these numbers are from paper PMC9773353.
